- targetUnderTest: Metabotropic glutamate receptor 8 (Rattus norvegicus) (UniProt P70579)
- Sequence (P70579 whole entry, looked up): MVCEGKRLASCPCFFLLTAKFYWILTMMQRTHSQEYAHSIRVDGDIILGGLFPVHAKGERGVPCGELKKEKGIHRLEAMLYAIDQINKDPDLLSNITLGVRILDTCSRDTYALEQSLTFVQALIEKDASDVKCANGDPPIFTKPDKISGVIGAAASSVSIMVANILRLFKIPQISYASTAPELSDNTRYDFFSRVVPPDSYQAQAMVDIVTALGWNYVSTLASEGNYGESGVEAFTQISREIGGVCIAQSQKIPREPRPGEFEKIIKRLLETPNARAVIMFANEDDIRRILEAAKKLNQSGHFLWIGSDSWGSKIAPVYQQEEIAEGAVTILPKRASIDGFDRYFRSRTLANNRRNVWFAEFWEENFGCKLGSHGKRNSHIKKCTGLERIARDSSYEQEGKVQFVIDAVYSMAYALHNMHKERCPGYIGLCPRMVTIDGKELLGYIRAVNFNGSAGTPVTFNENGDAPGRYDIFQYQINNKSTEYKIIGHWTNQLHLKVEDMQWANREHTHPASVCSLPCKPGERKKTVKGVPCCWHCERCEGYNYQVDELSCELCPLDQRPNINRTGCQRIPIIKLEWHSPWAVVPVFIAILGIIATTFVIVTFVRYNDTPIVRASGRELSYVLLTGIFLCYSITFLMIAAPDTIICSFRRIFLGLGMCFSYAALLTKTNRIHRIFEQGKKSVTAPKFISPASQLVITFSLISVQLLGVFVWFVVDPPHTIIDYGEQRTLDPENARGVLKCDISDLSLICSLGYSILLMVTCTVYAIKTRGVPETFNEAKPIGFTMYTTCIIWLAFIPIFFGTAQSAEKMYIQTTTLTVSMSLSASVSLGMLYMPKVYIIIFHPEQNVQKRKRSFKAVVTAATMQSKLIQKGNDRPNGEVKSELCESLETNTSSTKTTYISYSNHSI
- measurementProtocol: mGluR8 Gi/Go-coupled signaling modulation – cell-based, rat, thallium flux, HTS, primary screen (AID 488969)
- conditionDetails: HEK293 rat mGluR8, GIRK thallium flux, FluoZin2; at 10 µM; stronger effect = higher value; submaximal glutamate (EC20) added with thallium
Over roughly 110,000 compounds, “z-score” has its median near -0.1; the highest 2% begin near 2. The sample as a whole holds a higher share of the highest values than the screen did.
The label depends only on z-score: Condition met if it is at least 0.08, Condition not met if it is smaller.

Solved entries (count: 4):
CCC(=O)N1CCc2cc(S(=O)(=O)CCC(=O)NCCc3ccccc3)ccc21: Condition not met
CCSc1nnc(NC(=O)CC)s1: Condition met
CCSc1nnc(NC(=O)C(CC)(C(F)(F)F)C(F)(F)F)s1: Condition not met
CC12CCC(C(=O)N(CSC(=S)N/N=C\c3ccccc3)C1=O)C2(C)C (stereo not given): Condition met

Query block: Dear colleague, could you confirm whether `Cc1ccc(-n2c(SCC(=O)N3CC(=O)Nc4ccccc43)nc3ccccc3c2=O)cc1` has z-score at or above 0.08?
Result block: Condition not met

Query block: And then `NC1=NC2(CCCCC2)N(c2cccc(Cl)c2)C(N)=N1` , what is it?
Result block: Condition met

Query block: Same thing, different compound: CN(C)c1ccc(/C=N\NC(=S)SCN2C(=O)C3CCC(C)(C2=O)C3(C)C)cc1 (stereo not given)
Result block: Condition met

Query block: Try the compound `Cc1cc(C(=O)CSc2nnc(-c3ccccc3)n2C)c(C)n1C`
Result block: Condition not met

Query block: Would you kindly repeat that for `Cc1nnc(SCC(=O)N2CC(=O)Nc3ccccc32)n1Cc1ccccc1` ?
Result block: Condition not met

* * *

- targetUnderTest: Metabotropic glutamate receptor 8 (Rattus norvegicus)
- measurementProtocol: mGluR8 Gi/Go-coupled signaling modulation – cell-based, rat, thallium flux, HTS, primary screen (AID 488969)
- conditionDetails: HEK293 rat mGluR8, GIRK thallium flux, FluoZin2; at 10 µM; stronger effect = higher value; submaximal glutamate (EC20) added with thallium
The full ranking holds about 110,000 compounds; the median of “z-score” is about -0.1, and the highest 2% start at about 2. Only a selection was taken, and the highest values are over-represented in it overall. Calls of active or inactive are those of the source.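 The calls were made as follows: active = z-score in the third read window above 3 or below -3; inactive = the rest.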
experimentalEndpoint: z-score

Query block: Give the measured z-score of `O=C(CSCCO)Nc1cccc([N+](=O)[O-])c1` .
Result block: -1.53

Query block: And `C=C(C)CNC(=S)Nc1nc2c(cc1C(=O)OCC)CCCC2` ?
Result block: 3.56 (active)

Query block: Moving on to the next compound: `CCOC(=O)c1cc2c(nc1NC(=S)NCc1ccccc1)CCCC2`
Result block: 2.16

Query block: Record: `C=CCNC(=S)Nc1nc2c(cc1C(=O)OCC)CCCC2`
Result block: 7.76 (active)

Query block: Subsequent entry: `CCOC(=O)c1ccc(NC(=S)NCCC2=CCCCC2)cc1`
Result block: -0.19

* * *

- targetUnderTest: Metabotropic glutamate receptor 8 (Rattus norvegicus)
- measurementProtocol: mGluR8 Gi/Go-coupled signaling modulation – cell-based, rat, thallium flux, HTS, primary screen (AID 488969)
- conditionDetails: HEK293 rat mGluR8, GIRK (G protein-gated inwardly rectifying potassium channel) thallium flux, FluoZin2; at 10 µM; stronger effect = higher value; submaximal glutamate (EC20) added with thallium
In all, about 110,000 compounds were measured (“z-score”: median about -0.1, highest 2% from about 2 on). Only a selection was taken, and the highest values are over-represented in it overall.
Classify by measured z-score: true if it is equal to or exceeds -0.06, false if it is smaller.

Reference set (4 entries):
CC(C)NC(=O)C1CCN(C(=O)C(C(=O)c2ccccc2)n2cc(Cl)ccc2=O)CC1 (configuration not stated): true
O=C(NCCc1ccncc1)C12CC3CC(CC(C3)C1)C2: true
CCOc1cccc(OCCCCN2CCOCC2)c1: false
CCCCCCCCCOC(=O)C[n+]1csc(CCO)c1C: true

Query block: Would you say `CCOC(=O)c1c(-c2ccc(OC)cc2)csc1/N=C/N(C)C` shows z-score at minimum -0.06?
Result block: false

Query block: Please do the same for `CCCn1c(SCC(=O)N2CCCc3ccccc32)nnc1-c1ccccn1` as well.
Result block: false

Query block: Here is the next compound: `Cc1cccc(NC(=O)c2cc(Cl)sc2Cl)c1C`
Result block: true
